- assay-method-text: Stability in cynomolgus monkey fecal homogenate (anaerobic)
- Assay type: in vitro ADME
- condition-label: pH 6.8, 20% cynomolgus monkey fecal homogenate, 37° C., up to 24 hours, read-out: t1/2: Monkey Feces anaerobic (converted)
*1 amine or outer side, *2 acyl side, *3 side chain or, on linkers, in order; H or OH if unused. Where a SMILES comes first, the peptide text is derived from it. Bridges are numbered along the chain shown (N, C = ends). [ ]: non-standard residue; d: D form. X7 = O=C([C@H](Cc1c[nH]c2cc(-c3ccccc3)ccc12)N[*:1])[*:2]; 2Nal = N[C@@H](Cc1ccc2ccccc2c1)C(=O)O; AEF = NCCOc1ccc(C[C@H](N)C(=O)O)cc1; Pen = CC(C)(S)[C@H](N)C(=O)O; αMeK = C[C@](N)(CCCCN)C(=O)O
measured-property: half-life at 20 μM

Name the recorded half-life at 20 μM for CC(=O)NCCCC[C@@H]1NC(=O)[C@H](Cc2c[nH]c3cc(-c4ccccc4)ccc23)NC(=O)[C@H]([C@@H](C)O)NC(=O)[C@H](CC(N)=O)NC(=O)[C@@H](NC(C)=O)C(C)(C)SSC(C)(C)[C@@H](C(=O)N[C@@H](Cc2ccc(OCCN)cc2)C(=O)N[C@@H](Cc2ccc3ccccc3c2)C(=O)N[C@@](C)(CCCCN)C(=O)N[C@@H](CCCCNC(C)=O)C(=O)N[C@@H](CC(N)=O)C(=O)N[C@H](CCCCN)C(N)=O)NC1=O [Peptide 6] (Ac-[Pen]NT[X7]K(Ac)[Pen][AEF][2Nal][αMeK]K(Ac)N[dK]-NH2; disulfide 1-6) .
> 24 h
